Tested on: Wnt activity (Wnt-responsive human Sp5 promoter, TCF/LEF binding sites) in SW480 colon carcinoma cells
Test: Wnt activity screening assay: Sp5-Luc luciferase reporter gene in SW480 cells
Type: cell-based
Settings: given for EC50 of >10 μM, 10 μM, read-out: percent inhibition at 10 μM
Experimental: The screening assay for Wnt activity is described as follows. […] SW480 colon carcinoma cells were transduced with a lentiviral vector expressing luciferase with a human Sp5 promoter consisting of a sequence of eight TCF/LEF binding sites. […] Following incubation, 20 μl of BrightGlo luminescence reagent (Promega) was added to each well of the 384-well assay plates. The plates were placed on an orbital shaker for 2 min and then luminescence was quantified using the Envision (Perkin Elmer) plate reader. […]
Please respond with reported inhibition at 10 µM for every item in the list.
Give your result in % as a bare value.

Which measured inhibition at 10 µM value corresponds to `CCCC(=O)Nc1cncc(-c2ccc3[nH]nc(-c4nc5c(-c6cc(F)cc(CNS(C)(=O)=O)c6)nccc5[nH]4)c3n2)c1` ?
15.1

Which measured inhibition at 10 µM value corresponds to `CCCC(=O)Nc1cncc(-c2ccc3[nH]nc(-c4nc5c(-c6ccncc6)nccc5[nH]4)c3n2)c1` ?
2.2

Which measured inhibition at 10 µM value corresponds to `Cc1ccncc1-c1ccc2[nH]nc(-c3nc4c(-c5ccncc5)nccc4[nH]3)c2n1` ?
28

Which measured inhibition at 10 µM value corresponds to `CCC(=O)Nc1cncc(-c2ccc3[nH]nc(-c4nc5c(-c6cccs6)nccc5[nH]4)c3n2)c1` ?
31.8

Which measured inhibition at 10 µM value corresponds to `Cc1cn(-c2nccc3[nH]c(-c4n[nH]c5ccc(-c6cncc(CN7CCCC7)c6)nc45)nc23)cn1` ?
5.5

Which measured inhibition at 10 µM value corresponds to `CS(=O)(=O)NCc1cc(F)cc(-c2nccc3[nH]c(-c4n[nH]c5ccc(-c6cncc(NC(=O)CC7CCNCC7)c6)nc45)nc23)c1` ?
9.8

Which measured inhibition at 10 µM value corresponds to `c1cc(-c2nccc3[nH]c(-c4n[nH]c5ccc(-c6cncc(OC7CCNCC7)c6)nc45)nc23)ccn1` ?
17.9

Which measured inhibition at 10 µM value corresponds to `CC(C)C(=O)Nc1cncc(-c2ccc3[nH]nc(-c4nc5c(N6CCN(C)CC6)nccc5[nH]4)c3n2)c1` ?
6.4

Which measured inhibition at 10 µM value corresponds to `COc1cccc(-c2nccc3[nH]c(-c4n[nH]c5ccc(-c6cncc(O)c6)nc45)nc23)c1` ?
14.1

Which measured inhibition at 10 µM value corresponds to `Fc1cccc(-c2nccc3[nH]c(-c4n[nH]c5ccc(C6CCNCC6)nc45)nc23)c1` ?
11.9

Which measured inhibition at 10 µM value corresponds to `Fc1ccc(-c2nccc3[nH]c(-c4n[nH]c5ccc(-c6cncc(CN7CCCC7)c6)nc45)nc23)cc1` ?
28.2

Which measured inhibition at 10 µM value corresponds to `CC(C)C(=O)Nc1cncc(-c2ccc3[nH]nc(-c4nc5c(-c6ccccc6F)nccc5[nH]4)c3n2)c1` ?
2.7

Which measured inhibition at 10 µM value corresponds to `CN(C)Cc1cncc(-c2ccc3[nH]nc(-c4nc5c(N6CCCCC6)nccc5[nH]4)c3n2)c1` ?
8.4

Which measured inhibition at 10 µM value corresponds to `c1cc2[nH]c(-c3n[nH]c4ccc(C5CCNCC5)nc34)nc2c(-c2ccc3c(c2)OCO3)n1` ?
11

Which measured inhibition at 10 µM value corresponds to `CCC(=O)Nc1cncc(-c2ccc3[nH]nc(-c4nc5c(-c6cccc(F)c6)nccc5[nH]4)c3n2)c1` ?
29.8

Which measured inhibition at 10 µM value corresponds to `c1cc2[nH]c(-c3n[nH]c4ccc(-c5cncc(OC6CCNCC6)c5)nc34)nc2cn1` ?
15.4

Which measured inhibition at 10 µM value corresponds to `COc1cccc(-c2nccc3[nH]c(-c4n[nH]c5ccc(-c6cncc(OC7CCNCC7)c6)nc45)nc23)c1` ?
15.1

Which measured inhibition at 10 µM value corresponds to `CS(=O)(=O)NCc1cc(F)cc(-c2nccc3[nH]c(-c4n[nH]c5ccc(-c6cncnc6)nc45)nc23)c1` ?
18.7

Which measured inhibition at 10 µM value corresponds to `CN(C)CCNc1cc(F)cc(-c2nccc3[nH]c(-c4n[nH]c5ccc(-c6cnccn6)nc45)nc23)c1` ?
36.2

Which measured inhibition at 10 µM value corresponds to `O=C(Nc1cncc(-c2ccc3[nH]nc(-c4nc5c(-c6ccccn6)nccc5[nH]4)c3n2)c1)c1ccccc1` ?
9.9

Which measured inhibition at 10 µM value corresponds to `O=C(Nc1cncc(-c2ccc3[nH]nc(-c4nc5c(-c6ccccc6F)nccc5[nH]4)c3n2)c1)C1CCCC1` ?
14.8

Which measured inhibition at 10 µM value corresponds to `CN1CCN(c2nccc3[nH]c(-c4n[nH]c5ccc(-c6cnccn6)nc45)nc23)CC1` ?
1

Which measured inhibition at 10 µM value corresponds to `c1cncc(-c2ccc3[nH]nc(-c4nc5c(-c6cccnc6)nccc5[nH]4)c3n2)c1` ?
34.4

Which measured inhibition at 10 µM value corresponds to `Cc1ccc(-c2nccc3[nH]c(-c4n[nH]c5ccc(-c6cncc(NC(=O)C7CCCC7)c6)nc45)nc23)s1` ?
23.8

Which measured inhibition at 10 µM value corresponds to `c1cc(-c2nccc3[nH]c(-c4n[nH]c5ccc(-c6cnccn6)nc45)nc23)ccn1` ?
5.7

Which measured inhibition at 10 µM value corresponds to `c1cc2[nH]c(-c3n[nH]c4ccc(-c5cncc(OCCN6CCCC6)c5)nc34)nc2c(N2CCCCC2)n1` ?
46.2

Which measured inhibition at 10 µM value corresponds to `Oc1cncc(-c2ccc3[nH]nc(-c4nc5cnccc5[nH]4)c3n2)c1` ?
10.7

Which measured inhibition at 10 µM value corresponds to `Cc1ccc(-c2nccc3[nH]c(-c4n[nH]c5ccc(-c6cncc(NC(=O)C(C)C)c6)nc45)nc23)s1` ?
17.2

Which measured inhibition at 10 µM value corresponds to `c1cc(-c2ccc3[nH]nc(-c4nc5c(-c6ccncc6)nccc5[nH]4)c3n2)ccn1` ?
7.5
